target: Tyrosyl-tRNA synthetase, putative (Trypanosoma cruzi (strain CL Brener)) (UniProt Q4DSP6); experiment: Trypanosoma cruzi tyrosyl tRNA synthetase (TcYRS) SOP; type: functional; parameters: scale not given: direction of the effect not stated beside the values; conditions: 30 µM
Sequence (Q4DSP6 as listed by the source): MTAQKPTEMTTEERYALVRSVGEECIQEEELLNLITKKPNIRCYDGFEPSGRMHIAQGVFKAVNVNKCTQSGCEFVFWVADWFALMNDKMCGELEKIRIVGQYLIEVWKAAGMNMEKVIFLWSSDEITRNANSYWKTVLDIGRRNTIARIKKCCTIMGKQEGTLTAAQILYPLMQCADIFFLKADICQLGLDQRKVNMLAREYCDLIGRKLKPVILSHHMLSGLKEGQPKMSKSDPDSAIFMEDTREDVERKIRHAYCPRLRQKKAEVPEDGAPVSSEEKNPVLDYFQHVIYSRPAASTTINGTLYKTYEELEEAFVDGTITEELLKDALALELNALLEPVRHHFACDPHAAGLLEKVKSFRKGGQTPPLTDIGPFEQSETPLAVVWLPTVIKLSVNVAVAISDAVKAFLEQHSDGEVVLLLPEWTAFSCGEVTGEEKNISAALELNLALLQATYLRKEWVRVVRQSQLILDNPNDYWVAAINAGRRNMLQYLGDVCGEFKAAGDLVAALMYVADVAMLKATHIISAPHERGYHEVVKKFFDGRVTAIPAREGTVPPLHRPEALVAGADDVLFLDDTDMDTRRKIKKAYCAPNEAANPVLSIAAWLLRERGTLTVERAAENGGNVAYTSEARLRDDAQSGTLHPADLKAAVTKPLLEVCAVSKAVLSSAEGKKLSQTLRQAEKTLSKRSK
parameter: Percent Effect (%)
Numbers only, in %.

compound	numeric.value
Cn1ncc2c1NC(=O)CC2c1ccc(O)cc1 (configuration not stated)	4.88
CCC1c2ccsc2CCN1C(=O)NCc1cc[nH]n1 (configuration not stated)	6.02
CC(=O)N1CCCC1c1csc(Nc2cnccn2)n1 (configuration not stated)	10
CC(C)(C)c1nnc(CN2CCCC(Cn3cncn3)C2)o1 (configuration not stated)	1.21
O=C(NCC(=O)N1CCCCC1)c1ccoc1	18.8

Please report Percent Effect for every entry that follows.
1. CN(Cc1ccccc1)CC(O)Cn1cnc2ccccc2c1=O (configuration not stated)
2. CNC(=O)c1ccc(C2CN(C(=O)COC)CCO2)nc1 (configuration not stated)

Marked response:
[6.02, 7.5]
